# test_system: hEAAT2 (Homo sapiens)
# Sequence (P43004 whole entry): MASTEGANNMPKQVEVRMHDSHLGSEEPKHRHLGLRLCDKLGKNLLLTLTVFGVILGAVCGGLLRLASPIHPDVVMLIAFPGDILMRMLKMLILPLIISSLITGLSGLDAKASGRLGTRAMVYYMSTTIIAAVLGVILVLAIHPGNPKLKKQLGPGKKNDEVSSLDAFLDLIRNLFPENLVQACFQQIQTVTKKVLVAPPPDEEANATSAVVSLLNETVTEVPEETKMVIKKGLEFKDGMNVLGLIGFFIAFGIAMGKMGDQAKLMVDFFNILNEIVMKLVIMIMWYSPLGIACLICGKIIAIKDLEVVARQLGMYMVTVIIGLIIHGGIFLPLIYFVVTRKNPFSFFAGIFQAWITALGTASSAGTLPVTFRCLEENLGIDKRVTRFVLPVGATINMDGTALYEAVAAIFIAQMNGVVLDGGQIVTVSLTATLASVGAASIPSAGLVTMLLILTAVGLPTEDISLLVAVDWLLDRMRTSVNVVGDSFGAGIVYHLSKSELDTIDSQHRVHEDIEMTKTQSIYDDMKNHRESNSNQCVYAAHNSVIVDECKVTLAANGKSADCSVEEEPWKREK
# assay_details: Inhibition of 3H-D-aspartate uptake in C17.2 cells expressing hEAAT2
# Type: cell-based
# Design: expressed in transfected cells; host or cells: C17.2 cells, transient Lipofectamine 2000 transfection
# condition_context: 10 μM inhibitor; 25 μM 3H-D-aspartate; EAAT2; smaller = greater inhibition
# Description: EAAT1 and EAAT3 cDNA were PCR amplified from […] and […] using primer pairs (forward; [NT] ID NO:1) and reverse [NT] ID NO:2)) and (forward: […] […] The cells were dissolved in 0.4 N NaOH for 24 h and analyzed for radioactivity by liquid scintillation counting (LSC) and protein by the bicinchoninic acid (BCA) (Pierce) method. […] Ki values were also determined using this software on the basis of a replot of Km,app values. […]
readout_label: 3H-D-aspartate uptake, % of control (mean)
Mention the unit after the number when you answer.

# annotated cases, reported 3H-D-aspartate uptake, % of control (mean) shown
[[record]]
compound = "N[C@H](C(=O)O)[C@H](OCc1ccccc1)C(=O)O [TBOA, β-threo-benzyloxy-aspartate, reference compound]"
endpoint_result = "30%"

[[record]]
compound = "N[C@H](C(=O)O)C(Cc1ccccc1)C(=O)O (stereo partly shown)"
endpoint_result = "70%"


Dear colleague, could you send me 3H-D-aspartate uptake, % of control (mean) for each of the items below? Thanks.
1. N[C@H](C(=O)O)[C@@H](Cc1ccccc1)C(=O)O [3(R)-BA, 3(R)-benzyl L-aspartate]
2. N[C@H](C(=O)O)[C@H](Cc1ccccc1)C(=O)O [3(S)-BA, 3(S)-benzyl L-aspartate]

1: 90%; 2: 53%
